pIC50: −log10 of the molar value.
Compiled from multiple publications: pIC50 readings for UniProt P23469.
Sequence (P23469 whole entry): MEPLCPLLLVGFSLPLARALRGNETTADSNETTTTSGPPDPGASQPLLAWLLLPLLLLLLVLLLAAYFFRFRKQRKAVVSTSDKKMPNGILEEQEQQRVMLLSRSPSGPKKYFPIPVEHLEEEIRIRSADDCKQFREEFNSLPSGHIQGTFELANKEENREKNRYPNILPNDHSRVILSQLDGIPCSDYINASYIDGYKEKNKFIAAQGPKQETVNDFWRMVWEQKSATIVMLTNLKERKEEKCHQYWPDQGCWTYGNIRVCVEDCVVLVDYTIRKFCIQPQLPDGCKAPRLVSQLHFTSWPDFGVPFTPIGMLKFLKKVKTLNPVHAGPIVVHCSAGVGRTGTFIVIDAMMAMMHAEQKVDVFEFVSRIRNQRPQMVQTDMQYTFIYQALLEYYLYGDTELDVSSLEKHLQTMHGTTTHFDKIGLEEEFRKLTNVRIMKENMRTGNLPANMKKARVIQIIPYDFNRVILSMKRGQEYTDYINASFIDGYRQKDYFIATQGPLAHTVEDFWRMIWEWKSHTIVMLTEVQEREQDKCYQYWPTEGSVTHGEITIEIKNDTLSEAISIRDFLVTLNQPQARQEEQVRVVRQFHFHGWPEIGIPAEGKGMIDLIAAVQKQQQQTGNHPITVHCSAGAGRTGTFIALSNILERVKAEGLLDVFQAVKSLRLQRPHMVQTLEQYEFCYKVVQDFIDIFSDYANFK

INSERT INTO measurements (compound, test_value) VALUES
  ('CNC(=O)[C@@H]1Cc2ccc(NS(=O)(=O)O)cc2CN1C(=O)CCc1cccc(NS(=O)(=O)O)c1', '< 3.30');

Task item: # query: pIC50 | item O=C(Nc1ccc(I)cc1)C(=O)Nc1ccc(NC(=O)C(c2ccccc2)S(=O)(=O)O)cc1 (centres undefined) | system: UniProt P23469
Reply: < 4.30

Task item: Another compound to check: CC1(C)Cc2c(O)c(C=O)c3c(c2C1)C(=O)OC(O)C3 (centres undefined)
Reply: < 4.00

Task item: Another compound to check: "COC(=O)C(CCCc1ccccc1)(Cc1ccc(NS(=O)(=O)O)cc1)C(=O)OC"
Reply: < 3.30
